These data points were gathered from paper PMC8752837.

- Test target: T1, GST-BAK (human)
- T1 chain: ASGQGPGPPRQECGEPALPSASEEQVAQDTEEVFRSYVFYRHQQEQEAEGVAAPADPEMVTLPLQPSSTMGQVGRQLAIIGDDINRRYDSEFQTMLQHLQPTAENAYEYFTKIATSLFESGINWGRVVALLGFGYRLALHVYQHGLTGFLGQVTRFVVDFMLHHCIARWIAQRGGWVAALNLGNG
- Measurement description: FP
// values below are reported IC50
The reply should contain only the number, in µM.

Reference set, count: 5
Bench note: what IC50 did Ac-EDIIRNIARHLAQVGDSYDRSI-NH2 [Y(4) BID BH3 peptide] show? 6.9

Subsequent entry: Ac-EDIIRNIARHLAQVGDSMDRSI-NH2 [WT BID BH3 peptide] 12.2

Queued: Ac-EDIIRNIARHLAQYGDSMDRSI-NH2 [Y(3) BID BH3 peptide] 6.2

Can you check Ac-EDIIRNIARHLAQMGDSMDRSI-NH2 [M(3) BID BH3 peptide] next? 4.6

Subsequent entry: Ac-EDIIRNIARHLAQWGDSMDRSI-NH2 [W(3) BID BH3 peptide] 6.6

Others:
Entry under review: Ac-EDIIRNIARHLAQVGDSFDRSI-NH2 [F(4) BID BH3 peptide] . Reported IC50? 11.9

Again, but for Ac-EDIWRNIARHLAQVGDSMDRSI-NH2 [W(0) BID BH3 peptide] 10.8

What do you get for Ac-EDIIRNIARHLAQVGDSWDRSI-NH2 [W(4) BID BH3 peptide] ? 11.5

Ac-EDIIRNIARHLAQFGDSMDRSI-NH2 [F(3) BID BH3 peptide] , same question. 11.3

Another binder to look at: Ac-EDIIRNIARHLAQVGDSMDRSW-NH2 [W(5) BID BH3 peptide] 8.8
